Tested on: SNB-75 CNS
experimental-details: NCI-60 one-dose screen, 48 h (100 = growth as untreated, 0 = no growth, -100 = all killed)
condition-context: 10 µM
About 83,000 compounds went through this panel and 20% of them were active in at least one assay; those are over-represented in the sample as a whole.
experimental-endpoint: growth (%)
# value in %; strip the unit string

Write down measured growth (SNB-75 CNS) for this compound. CCc1cc(Cl)c(OC)c(C(=O)NCC2CCCN2CC)c1O (centres undefined)
67.1

Give growth for this entry on SNB-75 CNS: COc1ccc(C(=O)c2cc3c(OC)c(OC)c(OC)cc3[nH]2)cc1
51.9

Others:
Answer briefly: growth recorded on SNB-75 CNS for COc1ccccc1/C=N\N/C(N)=N\N=C\c1ccccc1OC
21.5

With SNB-75 CNS as the test system, provide measured growth for this compound: COc1ccc2c(c1)OC(N)=C(C#N)C2c1cc(OC)c(OC)c(OC)c1 (centres undefined)
44.7

Provide SNB-75 CNS growth reading for CCN(CC)CCOC(=O)c1cc(OCc2ccccc2)c(OCc2ccccc2)c(OCc2ccccc2)c1 .
72.1

Please respond with reported growth (system SNB-75 CNS) for CS(=O)(=O)c1nccc(-c2c(-c3cccc(OCCc4ccccc4)c3)nc3sccn23)n1 .
98.4

Name the recorded growth of CCCCCC(=O)O[C@]1(C(C)=O)CCC2C3CCC4=CC(=O)CC[C@]4(C)C3CC[C@@]21C (some centres undefined) , assay system SNB-75 CNS.
46.3

Identify measured growth obtained with SNB-75 CNS for COc1ccc(C(=O)N2C=Cc3ccccc3C2C#N)cc1 (centres undefined) .
94.1

Write down measured growth (SNB-75 CNS) for this compound. CCOC(=O)c1cocc1C(=O)O
83.3

Would you please give the reported growth of O=C1c2ccccc2C(=O)c2c1ccc(C(Br)Br)c2Cl with SNB-75 CNS?
91.4

Identify measured growth obtained with SNB-75 CNS for O=C1CC(SC(=S)C2CCCC2=O)C(=O)N1 (centres undefined) .
105

Report growth from SNB-75 CNS testing of CC(C)CCN(CCC(C)C)CC(=O)Nc1ccc(S(=O)(=O)c2ccc(NC(=O)CN(CCC(C)C)CCC(C)C)cc2)cc1
79.3

Fill in: growth on SNB-75 CNS, entry O=[N+]([O-])c1cccc(/C=N/NC(=S)NC23CC4CC(CC(C4)C2)C3)c1
17.9

Jot down growth (SNB-75 CNS) of C=CCn1c(SCC(=O)Nc2ccc(C(=O)/C=C/c3ccc(Cl)cc3)cc2)nnc1-c1cc(-c2ccccc2)nc2ccccc12 .
59.8

Please report growth with SNB-75 CNS for item CC(C)C1=C(O)C2=C(C(=O)C1=O)[C@@]1(C)CCCC(C)(C)[C@@H]1CC2 .
78.5

Write down the reported growth (system: SNB-75 CNS) of CC1(C)N=C(N)N=C(N)N1c1cccc(C#N)c1
77.4

Jot down growth (SNB-75 CNS) of CCN(CC)c1ccc(/C=C2\SC(=O)C(Nc3nnc(-c4cccnc4SCc4ccccc4)o3)C2=O)cc1 (centres undefined) .
44.1

Look up SNB-75 CNS data: growth of O=C(O)c1cc([N+](=O)[O-])ccc1Oc1ccccc1 , then report it.
98.1

// output growth; input CC[C@@H](C(=O)[C@@H](C)[C@@H](O)[C@H](C)[C@@H]1O[C@@H]([C@@H](CC)C(=O)O)CC[C@@H]1C)C1O[C@]2(C=CC(=O)[C@]3(CC[C@@](C)([C@H]4CC[C@](O)(CC)[C@H](C)O4)O3)O2)[C@H](C)C[C@@H]1C (some centres undefined) ; system SNB-75 CNS
19.2
